Biological target: T1, human BDCA2-his protein (human, UniProt Q8WTT0 45-213)
T1 construct: also called BDCA2-his antigen protein
T1 sequence: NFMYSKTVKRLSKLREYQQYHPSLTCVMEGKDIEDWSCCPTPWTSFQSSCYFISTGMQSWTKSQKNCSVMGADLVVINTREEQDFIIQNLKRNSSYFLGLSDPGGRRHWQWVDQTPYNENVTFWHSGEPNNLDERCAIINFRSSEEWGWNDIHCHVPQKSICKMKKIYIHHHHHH
Assay: ELISA, BDCA2-his coated at 0.1 ug/mL, anti-human Fc HRP
Observed property: binding result

These recorded examples may help you get a feel for the data.
Binder	binding result
antibody 230 mutant with light chain CDR2 DAETLAD changed to DAETLAI (antibody, V domains shown, Single-point mutant of humanized antibody 230; also called 230 antibody-DI) VH: QVQLVQSGAEVKKPGASVKVSCKASGYTFTSYIIHWVRQAPGQGLEWMGTIYPGNGDTSYNQKFKGRVTMTRDTSTSTVYMELSSLRSEDTAVYYCARMGDNEYFDYWGQGTLVTVSS VL: DIQMTQSPSSLSASVGDRVTITCRASGNIHNYLAWYQQKPGKAPKLLLYDAETLAIGVPSRFSGSGSGTDYTLTISSLQPEDFATYYCQHFWSTPYTFGGGTKVEIK	binds
230IL-NR-DI (antibody, V domains shown, Linked to the constant region of the IgG1 subtype) VH: QVQLVQSGAEVKKPGASVKVSCKASGYTFTSYLIHWVRQAPGQGLEWMGTIYPGRGDTSYNQKFKGRVTMTRDTSTSTVYMELSSLRSEDTAVYYCARMGDNEYFDYWGQGTLVTVSS VL: DIQMTQSPSSLSASVGDRVTITCRASGNIHNYLAWYQQKPGKAPKLLLYDAETLAIGVPSRFSGSGSGTDYTLTISSLQPEDFATYYCQHFWSTPYTFGGGTKVEIK	binds
230-N55R (antibody, V domains shown, Single-point mutant of humanized antibody 230 (human IgG1/kappa)) VH: QVQLVQSGAEVKKPGASVKVSCKASGYTFTSYIIHWVRQAPGQGLEWMGTIYPGRGDTSYNQKFKGRVTMTRDTSTSTVYMELSSLRSEDTAVYYCARMGDNEYFDYWGQGTLVTVSS VL: DIQMTQSPSSLSASVGDRVTITCRASGNIHNYLAWYQQKPGKAPKLLLYDAETLADGVPSRFSGSGSGTDYTLTISSLQPEDFATYYCQHFWSTPYTFGGGTKVEIK	binds
230-N55S (antibody, V domains shown, Single-point mutant of humanized antibody 230 (human IgG1/kappa)) VH: QVQLVQSGAEVKKPGASVKVSCKASGYTFTSYIIHWVRQAPGQGLEWMGTIYPGSGDTSYNQKFKGRVTMTRDTSTSTVYMELSSLRSEDTAVYYCARMGDNEYFDYWGQGTLVTVSS VL: DIQMTQSPSSLSASVGDRVTITCRASGNIHNYLAWYQQKPGKAPKLLLYDAETLADGVPSRFSGSGSGTDYTLTISSLQPEDFATYYCQHFWSTPYTFGGGTKVEIK	binds
230IL-DI (antibody, V domains shown, Linked to the constant region of the IgG1 subtype) VH: QVQLVQSGAEVKKPGASVKVSCKASGYTFTSYLIHWVRQAPGQGLEWMGTIYPGNGDTSYNQKFKGRVTMTRDTSTSTVYMELSSLRSEDTAVYYCARMGDNEYFDYWGQGTLVTVSS VL: DIQMTQSPSSLSASVGDRVTITCRASGNIHNYLAWYQQKPGKAPKLLLYDAETLAIGVPSRFSGSGSGTDYTLTISSLQPEDFATYYCQHFWSTPYTFGGGTKVEIK	binds
antibody 230 mutant with light chain CDR2 DAETLAD changed to DAETLAE (antibody, V domains shown, Single-point mutant of humanized antibody 230; also called 230 antibody-DE) VH: QVQLVQSGAEVKKPGASVKVSCKASGYTFTSYIIHWVRQAPGQGLEWMGTIYPGNGDTSYNQKFKGRVTMTRDTSTSTVYMELSSLRSEDTAVYYCARMGDNEYFDYWGQGTLVTVSS VL: DIQMTQSPSSLSASVGDRVTITCRASGNIHNYLAWYQQKPGKAPKLLLYDAETLAEGVPSRFSGSGSGTDYTLTISSLQPEDFATYYCQHFWSTPYTFGGGTKVEIK	binds
230IL-NR-DE (antibody, V domains shown, Linked to the constant region of the IgG1 subtype) VH: QVQLVQSGAEVKKPGASVKVSCKASGYTFTSYLIHWVRQAPGQGLEWMGTIYPGRGDTSYNQKFKGRVTMTRDTSTSTVYMELSSLRSEDTAVYYCARMGDNEYFDYWGQGTLVTVSS VL: DIQMTQSPSSLSASVGDRVTITCRASGNIHNYLAWYQQKPGKAPKLLLYDAETLAEGVPSRFSGSGSGTDYTLTISSLQPEDFATYYCQHFWSTPYTFGGGTKVEIK	binds
230-I33L (antibody, V domains shown, Single-point mutant of humanized antibody 230 (human IgG1/kappa)) VH: QVQLVQSGAEVKKPGASVKVSCKASGYTFTSYLIHWVRQAPGQGLEWMGTIYPGNGDTSYNQKFKGRVTMTRDTSTSTVYMELSSLRSEDTAVYYCARMGDNEYFDYWGQGTLVTVSS VL: DIQMTQSPSSLSASVGDRVTITCRASGNIHNYLAWYQQKPGKAPKLLLYDAETLADGVPSRFSGSGSGTDYTLTISSLQPEDFATYYCQHFWSTPYTFGGGTKVEIK	binds
230-N55A (antibody, V domains shown, Single-point mutant of humanized antibody 230 (human IgG1/kappa)) VH: QVQLVQSGAEVKKPGASVKVSCKASGYTFTSYIIHWVRQAPGQGLEWMGTIYPGAGDTSYNQKFKGRVTMTRDTSTSTVYMELSSLRSEDTAVYYCARMGDNEYFDYWGQGTLVTVSS VL: DIQMTQSPSSLSASVGDRVTITCRASGNIHNYLAWYQQKPGKAPKLLLYDAETLADGVPSRFSGSGSGTDYTLTISSLQPEDFATYYCQHFWSTPYTFGGGTKVEIK	binds

### Prompt Which binding result is reported for this binder? 230NR-DE (antibody, V domains shown, Linked to the constant region of the IgG1 subtype) VH: QVQLVQSGAEVKKPGASVKVSCKASGYTFTSYIIHWVRQAPGQGLEWMGTIYPGRGDTSYNQKFKGRVTMTRDTSTSTVYMELSSLRSEDTAVYYCARMGDNEYFDYWGQGTLVTVSS VL: DIQMTQSPSSLSASVGDRVTITCRASGNIHNYLAWYQQKPGKAPKLLLYDAETLAEGVPSRFSGSGSGTDYTLTISSLQPEDFATYYCQHFWSTPYTFGGGTKVEIK
### Response binds

Hey, just so you know, these numbers are from patent EP4725965A1.
